Test system: 494315-158-R-J1-PDC complex spheroid growth, percent test/control;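 also: compound exposure lasted seven days after spheroids formed for three days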
testProtocol: Anticancer human tumor 494315-158-R-J1-PDC patient-derived soft tissue sarcoma cell line growth inhibition [Asc]
experimentalConditions: second compound 0.316 µM; first compound 0.316 µM; hits give low values
viability, T/C reference

Previously resolved entries follow.
INSERT INTO measurements (compound, result) VALUES
  ('O=C(c1cc(Cc2n[nH]c(=O)c3ccccc23)ccc1F)N1CCN(C(=O)C2CC2)CC1 + CNC(C)C(=O)NC1CN(S(=O)(=O)c2cccc(S(=O)(=O)N3CCC4CCC(C(=O)NC(c5ccccc5)c5ccccc5)N4C(=O)C(NC(=O)C(C)NC)C3)c2)CCC2CCC(C(=O)NC(c3ccccc3)c3ccccc3)N2C1=O', '42.8%'),
  ('COc1c(OCCCN2CCOCC2)ccc2c3n(c(=NC(=O)c4cnc(N)nc4)nc12)CCN3 + CNC(C)C(=O)NC1CN(S(=O)(=O)c2cccc(S(=O)(=O)N3CCC4CCC(C(=O)NC(c5ccccc5)c5ccccc5)N4C(=O)C(NC(=O)C(C)NC)C3)c2)CCC2CCC(C(=O)NC(c3ccccc3)c3ccccc3)N2C1=O', '11.8%');

# context switch: different compound, same viability, T/C
Exercise: Param request: viability, T/C | system 494315-158-R-J1-PDC complex spheroid growth, percent test/control | item C#Cc1c(F)ccc2cc(O)cc(-c3ncc4c(N5CC6CCC(C5)N6)nc(OCC56CCCN5CC(F)C6)nc4c3F)c12 (stereo not drawn) + Cc1c(S(C)(=O)=O)c(-c2cc(F)cc(N3CCN(c4ccc(NS(=O)(=O)c5ccc(NC(CCN6CCC(C(=O)OCCCP(=O)(O)O)CC6)CSc6ccccc6)c(S(=O)(=O)C(F)(F)F)c5)cc4)CC3)c2)c(-c2ccc(Cl)cc2)n1C(C)C;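 also: compound exposure lasted seven days after spheroids formed for three days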
Key: 74.8%
